Every entry's value here was drawn from ChEMBL document CHEMBL4808177.

Recorded pEC50 for the following molecules
ASSAY OVERVIEW: Modulation of SMN2 splicing in myoblast cell line derived from the SMNdelta7 mouse model assessed as increase in SMN level measured as fold activation treated for 24 hrs by ELISA
Type: functional, Primary myoblast
pEC50: −log10 of the molar value.

[
  {
    "INPUT SMILES": "COc1cc(-n2cccn2)ccc1-c1nnc(N(C)C2CC(C)(C)NC(C)(C)C2)s1",
    "pEC50": 7.21
  },
  {
    "INPUT SMILES": "COc1cc(-c2ccn(C)c(=O)c2)ccc1-c1nnc(N(C)C2CC(C)(C)NC(C)(C)C2)s1",
    "pEC50": 6.89
  },
  {
    "INPUT SMILES": "CN(c1nnc(-c2sc3ccc(C#N)cc3c2Cl)s1)C1CC(C)(C)NC(C)(C)C1",
    "pEC50": 7.04
  }
]
